B1: glmS ribozyme (parent)
chain: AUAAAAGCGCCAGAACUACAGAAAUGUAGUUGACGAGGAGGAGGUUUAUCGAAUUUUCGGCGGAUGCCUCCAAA

variants of: B1; test: self-cleavage kobs at 640 uM GlcN6P; higher = faster cleavage; RNA array; details: with glucosamine-6-phosphate
Variants at the floor of the assay were thinned out.
Assign fulfilled whenever self-cleavage kobs at 640 uM GlcN6P does not fall below 0.0001 s⁻¹; assign not fulfilled whenever it does.

Solved cases (8 shown):
A39C G66C | fulfilled
C8U A14C | not fulfilled
G44A U55A G59U | not fulfilled
G43A U46G C70G | not fulfilled
G44U A48U C67U | fulfilled
G7U G38A G44U | not fulfilled
A39G G43A | not fulfilled
G35U A48G | not fulfilled

Threshold query (self-cleavage kobs at 640 uM GlcN6P >= 0.0001 s⁻¹) on A36C U65A
not fulfilled

Now give it for C8G G40U too.
not fulfilled

Now give it for G41A G62C too.
not fulfilled

Now give it for G13U G38C too.
not fulfilled

Now give it for A15U G40U U55A U56A too.
not fulfilled

Now give it for G44A A53U too.
not fulfilled

Now give it for G35U A42U G63C too.
not fulfilled

Now give it for G29U G66U too.
not fulfilled

Now give it for G43A G51U U65A G66U too.
not fulfilled

Now give it for G41C G51U A64C too.
not fulfilled

Now give it for C8U C50A too.
not fulfilled
